molecular target: Cdk9/cyclinT1 (Homo sapiens, UniProt P50750); assay: Cdk9/CyclinT1 IMAP assay
Sequence (P50750 whole entry): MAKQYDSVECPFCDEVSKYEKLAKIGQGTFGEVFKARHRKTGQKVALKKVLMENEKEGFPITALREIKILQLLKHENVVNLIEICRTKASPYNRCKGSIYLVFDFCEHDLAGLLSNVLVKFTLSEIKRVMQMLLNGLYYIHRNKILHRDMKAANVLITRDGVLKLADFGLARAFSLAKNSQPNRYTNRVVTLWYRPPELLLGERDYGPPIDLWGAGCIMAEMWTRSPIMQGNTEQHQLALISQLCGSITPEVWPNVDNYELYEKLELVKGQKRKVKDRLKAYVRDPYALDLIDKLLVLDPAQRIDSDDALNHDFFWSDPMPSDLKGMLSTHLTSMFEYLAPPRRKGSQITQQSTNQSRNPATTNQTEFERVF
Sequence (O60563 whole entry partner): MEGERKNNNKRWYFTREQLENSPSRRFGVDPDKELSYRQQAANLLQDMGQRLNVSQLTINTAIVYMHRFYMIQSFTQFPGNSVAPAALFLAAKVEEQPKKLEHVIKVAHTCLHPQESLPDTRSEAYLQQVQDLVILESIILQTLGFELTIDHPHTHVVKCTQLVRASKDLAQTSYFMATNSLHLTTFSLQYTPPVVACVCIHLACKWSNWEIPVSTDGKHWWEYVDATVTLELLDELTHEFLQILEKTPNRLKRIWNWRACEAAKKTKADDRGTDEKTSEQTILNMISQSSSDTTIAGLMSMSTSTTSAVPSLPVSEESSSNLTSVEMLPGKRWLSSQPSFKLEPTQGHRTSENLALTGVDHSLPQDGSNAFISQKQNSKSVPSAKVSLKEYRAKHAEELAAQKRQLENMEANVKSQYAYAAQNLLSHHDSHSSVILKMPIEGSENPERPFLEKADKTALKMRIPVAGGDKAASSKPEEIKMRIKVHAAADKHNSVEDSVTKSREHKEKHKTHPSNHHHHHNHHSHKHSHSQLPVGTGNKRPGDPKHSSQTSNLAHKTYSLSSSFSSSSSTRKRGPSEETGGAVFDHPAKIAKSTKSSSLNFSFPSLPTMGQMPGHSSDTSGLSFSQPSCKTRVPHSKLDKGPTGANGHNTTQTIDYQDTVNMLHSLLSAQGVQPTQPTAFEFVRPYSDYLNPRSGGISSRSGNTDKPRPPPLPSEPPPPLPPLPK
readout.label: IC50 (nM)

Known IC50 results, listed for orientation:
INSERT INTO measurements (given_smiles, tested_system, readout_label, numeric_readout) VALUES
  ('Clc1cnc(NCC[C@H]2CCCNC2)cc1-c1cncc(NCC2CCOCC2)c1', 'Cdk9/cyclinT1 (Homo sapiens, UniProt P50750)', 'IC50', 68),
  ('Clc1cnc(N[C@H]2CC[C@H](N3CCCC3)CC2)cc1-c1cnc(Cl)c(NCC2CCOCC2)c1', 'Cdk9/cyclinT1 (Homo sapiens, UniProt P50750)', 'IC50', 45),
  ('CN(C)CC(C)(C)CNc1cc(-c2cncc(NCc3cccc(F)c3)c2)c(Cl)cn1', 'Cdk9/cyclinT1 (Homo sapiens, UniProt P50750)', 'IC50', 130),
  ('CN(C)CCCCNc1cc(-c2cncc(NCc3cccc(F)c3)c2)c(Cl)cn1', 'Cdk9/cyclinT1 (Homo sapiens, UniProt P50750)', 'IC50', 21),
  ('O[C@H]1CCCC[C@@H]1N[C@H]1CC[C@H](Nc2cc(-c3cnc(F)c(NCC4CCOCC4)c3)c(Cl)cn2)CC1', 'Cdk9/cyclinT1 (Homo sapiens, UniProt P50750)', 'IC50', 1.8);

1 = N[C@H]1CC[C@H](Nc2cc(-c3cncc(NCC4CCCCC4)c3)c(Cl)cn2)CC1
2 = CC(=O)N1CCC(CNc2cncc(-c3cc(N[C@H]4CC[C@H](N)CC4)ncc3Cl)c2)CC1
Ask: Which record would sort first by descending IC50, 1 or 2 ? # answer = label of selected item
Reply: 2

I = COc1ncc(-c2cc(N[C@H]3CC[C@H](N)CC3)ncc2Cl)cc1NCC1CCOCC1
II = Fc1cccc(CNc2cc(-c3cc(NC4CCCC4)ncc3Cl)cnc2N2CCOCC2)c1
Ask: # returns the entry with the larger IC50; inputs I and II // caller expects the label of the chosen entry
Reply: II
(II: 1490 nM, I: 96 nM)

I = CN(Cc1cccc(F)c1)c1cncc(-c2cc(N[C@H]3CC[C@H](N)CC3)ncc2Cl)c1
II = CS(=O)(=O)N1CCC(CNc2cncc(-c3cc(N[C@H]4CC[C@H](N)CC4)ncc3Cl)c2)CC1
Ask: Hi! Which is lower in terms of IC50, the first one I or the second one II ? Selection: enter the item's label.
Reply: I
